Biological target: MERTK (UniProt Q12866)
Sequence (Q12866 whole entry, looked up): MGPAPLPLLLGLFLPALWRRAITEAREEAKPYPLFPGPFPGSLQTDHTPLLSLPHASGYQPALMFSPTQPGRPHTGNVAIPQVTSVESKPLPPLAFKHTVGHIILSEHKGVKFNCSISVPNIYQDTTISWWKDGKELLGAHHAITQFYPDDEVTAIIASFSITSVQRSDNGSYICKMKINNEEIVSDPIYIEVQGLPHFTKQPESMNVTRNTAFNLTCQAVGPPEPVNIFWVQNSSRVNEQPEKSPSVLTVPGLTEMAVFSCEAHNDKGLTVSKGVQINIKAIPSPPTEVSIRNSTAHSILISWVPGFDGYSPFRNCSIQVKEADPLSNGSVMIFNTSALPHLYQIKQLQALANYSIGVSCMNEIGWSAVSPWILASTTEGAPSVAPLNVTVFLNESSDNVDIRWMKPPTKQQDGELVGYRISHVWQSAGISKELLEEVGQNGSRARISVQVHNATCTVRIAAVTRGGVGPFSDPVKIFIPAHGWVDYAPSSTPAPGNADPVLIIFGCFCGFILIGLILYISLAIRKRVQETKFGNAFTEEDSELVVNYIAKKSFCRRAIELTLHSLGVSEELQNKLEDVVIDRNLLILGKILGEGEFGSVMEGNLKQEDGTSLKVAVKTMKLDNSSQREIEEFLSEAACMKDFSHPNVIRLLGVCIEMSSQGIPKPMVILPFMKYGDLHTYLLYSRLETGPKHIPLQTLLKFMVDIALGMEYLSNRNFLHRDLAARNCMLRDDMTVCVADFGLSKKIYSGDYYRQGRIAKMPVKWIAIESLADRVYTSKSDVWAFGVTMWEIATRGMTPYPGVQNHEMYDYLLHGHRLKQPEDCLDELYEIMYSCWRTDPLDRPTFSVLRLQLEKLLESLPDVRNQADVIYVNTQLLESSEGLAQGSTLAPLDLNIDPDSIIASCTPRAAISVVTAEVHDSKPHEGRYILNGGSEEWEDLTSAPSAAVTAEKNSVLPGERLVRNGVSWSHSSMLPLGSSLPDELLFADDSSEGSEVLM
Assay: phosphorylation enrichment, bacterial display (enrichment ratio); higher = better substrate or ligand; peptides without Tyr show the background;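 note: 11-residue human phosphosite peptides and single-mutation variants displayed on the E. coli surface, counted by deep sequencing, each peptide's frequency after selection divided by its frequency in the unselected input library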;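 note: frequency after pTyr selection over input frequency; kinase dosed for 20-30% of maximal phosphorylation in three min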
Hi there, I'd appreciate the recorded phosphorylation enrichment for every entry that follows.
API doc: respond with a numeric literal and nothing else, no unit.

phosphorylation enrichment reading for DTKDDYNALSV [IL17RB_Y457] : 0.426

Lab note: LRRREYQRQDF [PRKRIP1_Y90_YF] gave phosphorylation enrichment of 0.7

get_value(item= ACCLLYCGDVV [TUBA4A_Y319_R320C] , readout=phosphorylation enrichment) returns 4.54

The recorded phosphorylation enrichment for GVRFTYTIDGS [DCX_Y105_I104T_YF] is 0.423

Short answer for AKAEIYEMRPL [COX10_Y97] : phosphorylation enrichment was 8.29

Record KFMVGYEMLAK [GALT_Y339_Q344K] . Reported phosphorylation enrichment: 0.407

Briefly, phosphorylation enrichment measured for RGRSTCYWPRP [GAGE12J_Y9_Y9C] : 0.732

Form: sequence = QTEAQYRFIYM [PTPN11_Y511] ; phosphorylation enrichment = 0.667

So for ELANLYHHVCM [BICD2_Y538] , the logged phosphorylation enrichment turned out to be 1.24

Sure, the documented phosphorylation enrichment for ENRKYYKDLKE [PURA_Y156_M157K] is 0.34

Entry under test: GRGMPYGGRGD [TGM1_Y312_R307G] . Its phosphorylation enrichment was 0.379

Measured phosphorylation enrichment, AIDDKYSRREE [SART1_Y685] : 0.439

Data point: SISLRYEGRVY [ABL1_Y167] ; phosphorylation enrichment = 0.428

Form: sequence = VTAALYGCLFE [BTD_Y536_R538C_YF] ; phosphorylation enrichment = 1.54

Summary for this sequence, LTTEAYEWEPR [ELMOD3_Y61] : phosphorylation enrichment is 0.724

# phosphorylation enrichment of SASQEYHIVKK [PDZD2_Y557] = 0.507
